Attribution: ChEMBL document CHEMBL1143244

# TARGET DESC: C-C chemokine receptor type 2 (Homo sapiens, UniProt P41597)
# Sequence (P41597 whole entry): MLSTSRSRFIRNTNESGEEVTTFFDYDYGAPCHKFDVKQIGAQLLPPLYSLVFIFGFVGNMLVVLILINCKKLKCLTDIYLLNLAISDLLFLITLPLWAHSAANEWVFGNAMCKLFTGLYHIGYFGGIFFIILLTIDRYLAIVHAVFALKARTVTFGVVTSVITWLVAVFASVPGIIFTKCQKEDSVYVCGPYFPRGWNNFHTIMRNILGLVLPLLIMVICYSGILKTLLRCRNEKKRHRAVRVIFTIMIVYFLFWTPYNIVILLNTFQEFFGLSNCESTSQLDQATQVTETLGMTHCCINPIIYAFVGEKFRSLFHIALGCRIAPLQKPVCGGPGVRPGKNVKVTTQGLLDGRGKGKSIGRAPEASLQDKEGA
# METHOD NOTES: Displacement of [125I]MCP1 from human CCR2 expressed in human monocytes
Consider the following molecules and their measured IC50 readings.
Dear colleague, please return just the value in nM, with no unit written.

# example entries with known answers
[
  {
    "SMILES REPRESENTATION": "C[C@H]1CN([C@@H]2CC[C@@]3(CCO[C@@H]3OCc3cc(F)cc(C(F)(F)F)c3)C2)CC[C@@]12C=Cc1ccccc12",
    "REPORTED METRIC": "IC50",
    "MEASUREMENT": 115
  },
  {
    "SMILES REPRESENTATION": "C[C@H]1CN([C@@H]2CC[C@@]3(CCO[C@H]3OCc3cc(F)cc(C(F)(F)F)c3)C2)CC[C@@]12C=Cc1ccccc12",
    "REPORTED METRIC": "IC50",
    "MEASUREMENT": 4.6
  }
]

Please look at the following molecule next.
input: # return recorded IC50 for input CC(C)[C@]1(C(=O)NCc2cc(F)cc(C(F)(F)F)c2)CC[C@@H](N2CC[C@@]3(C=Cc4ccccc43)[C@@H](C)C2)C1
output: 1.4
